These data points were gathered from patent US11945822B2.

# target entity: CDK7/Cyclin H/MNAT1 (Homo sapiens)
# Construct: purchased Invitrogen PR6749B
# Sequence (P50613 whole entry): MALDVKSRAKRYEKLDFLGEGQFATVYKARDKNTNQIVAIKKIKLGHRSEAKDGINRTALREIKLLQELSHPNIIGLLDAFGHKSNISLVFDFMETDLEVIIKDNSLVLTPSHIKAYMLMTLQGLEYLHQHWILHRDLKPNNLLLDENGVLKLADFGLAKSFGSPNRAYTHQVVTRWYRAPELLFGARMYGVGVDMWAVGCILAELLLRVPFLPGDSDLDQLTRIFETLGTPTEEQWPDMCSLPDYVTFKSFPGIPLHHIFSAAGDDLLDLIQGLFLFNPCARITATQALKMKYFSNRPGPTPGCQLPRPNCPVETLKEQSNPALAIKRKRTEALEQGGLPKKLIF
# Sequence (P51946 whole entry partner): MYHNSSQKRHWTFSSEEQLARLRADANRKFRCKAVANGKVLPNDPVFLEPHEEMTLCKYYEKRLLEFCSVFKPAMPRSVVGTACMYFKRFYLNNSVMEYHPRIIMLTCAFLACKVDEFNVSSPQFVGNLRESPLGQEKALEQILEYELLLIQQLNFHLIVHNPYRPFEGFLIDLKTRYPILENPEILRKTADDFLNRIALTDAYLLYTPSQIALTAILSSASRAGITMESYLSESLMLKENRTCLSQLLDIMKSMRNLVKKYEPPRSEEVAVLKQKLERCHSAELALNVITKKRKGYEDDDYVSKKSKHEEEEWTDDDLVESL
# Sequence (P51948 whole entry partner): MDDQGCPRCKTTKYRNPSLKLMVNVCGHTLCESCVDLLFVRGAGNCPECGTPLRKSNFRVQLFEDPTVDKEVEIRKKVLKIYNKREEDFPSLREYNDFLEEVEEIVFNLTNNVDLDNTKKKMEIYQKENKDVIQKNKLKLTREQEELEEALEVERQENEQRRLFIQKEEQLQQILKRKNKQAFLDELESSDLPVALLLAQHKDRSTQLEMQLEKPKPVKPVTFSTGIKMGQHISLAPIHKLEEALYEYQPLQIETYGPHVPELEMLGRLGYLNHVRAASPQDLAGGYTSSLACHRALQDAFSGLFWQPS
# experimental protocol: Enzymatic assay for CDK7 (FRET based LANCE Ultra kinase assay)
# Assay type: biochemical
# assay context: CDK7 over CDK2
# Description: Enzymatic Binding Assay Protocol for CDK1, CDK2, CDK5 and CDK7 Inhibition activity of the respective compound on CDK kinase under Km value of ATP was tested in FRET based The LANCE® Ultra kinase assay (Perkin Elmer), which uses a ULight™-labeled peptide substrate and an appropriate Europium-labeled anti-phospho-antibody. […] After 1 min centrifugation at 1000 rpm, Purified CDKs/Cyclin complex were added following concentrations respectively. […] Data was analyzed using XL Fit software.
experimental endpoint: CDK2/CDK7: Selectivity of CDK7 inhibition over CDK2 inhibition

NC1CCN(c2nc(NCc3ccccc3-n3cccn3)n3ncc(I)c3n2)CC1 [Compound 36]: C (C=less than 20 fold)
N#Cc1cnn2c(NCc3ccccc3-n3cccn3)nc(N3CCC(N)CC3)nc12 [Compound 34]: C (C=less than 20 fold)
